# Test system: LOX IMVI melanoma
# test: NCI tumour cell line growth inhibition, 48 h
Assign TGI to each entry below.
Numbers only, in µM.

# compound, testedSystem, TGI (µM)
measured = [
    ("O=S(=O)(Nc1cc(F)cc(Cl)c1)c1ccc(-c2cnc(C3CC3)o2)cc1", "LOX IMVI melanoma", 20.8),
    ("CC1=Nc2ccccc2C1C(Cc1ccccc1N)c1c(C)[nH]c2ccccc12 (centres undefined)", "LOX IMVI melanoma", 28.2),
    ("C[C@H]1c2cccc(O)c2C(O)=C2C(=O)[C@]3(O)C(O)=C(C(N)=O)C(=O)[C@@H](N(C)C)[C@@H]3[C@@H](O)[C@@H]21", "LOX IMVI melanoma", 10),
    ("Cc1ccc(S(=O)(=O)N/N=C/C(=C/c2ccc(Cl)cc2)CC(/C=N/NS(=O)(=O)c2ccc(C)cc2)=C\\c2ccc(Cl)cc2)cc1", "LOX IMVI melanoma", 3.73),
    ("COC(=O)C1=C(c2ccc3c(c2)OCO3)O[C@H](c2cc(OC)c(OC)c(OC)c2)[C@H]1COC(C)=O", "LOX IMVI melanoma", 55.3),
]

# evaluate next
// recorded TGI for CC(C)C1OC23CCCCC2C(C#N)(C#N)C1(C#N)C(=N)O3 (centres undefined) : 54
